# system: T1, TIM-1 antigen (Homo sapiens, UniProt Q96D42, DEL158-162/L179P)
# T1 construct: V5; His; made in house; host or cells: baculovirus expression system (pMelV5His vector / pBlueBac)
# T1 sequence (Q96D42 with tags, fused parts or gaps DEL158-162/L179P): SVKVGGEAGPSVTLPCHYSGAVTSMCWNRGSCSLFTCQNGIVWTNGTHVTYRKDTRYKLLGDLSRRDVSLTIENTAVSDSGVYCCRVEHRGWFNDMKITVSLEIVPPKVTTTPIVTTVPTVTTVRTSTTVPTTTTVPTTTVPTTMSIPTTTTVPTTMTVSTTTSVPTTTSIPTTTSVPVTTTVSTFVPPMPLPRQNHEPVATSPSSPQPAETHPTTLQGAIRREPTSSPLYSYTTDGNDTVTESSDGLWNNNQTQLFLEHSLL
# experimentDescription: Epitope binning (antigen binding competition, Luminex)
# assaySetup: Table 9
readoutName: Bin
// no unit, no text: just the number

Which value of Bin has been reported for mAb 2.54: fully human IgG4 kappa anti-TIM-1 monoclonal antibody; heavy chain SEQ ID NO: 26, light chain SEQ ID NO: 28 (antibody, listed as Homo Sapiens, V domains shown) VH: QVQLEQSGGGVVQPGRSLRLSCAASGFTFTNYGLHWVRQAPGKGLDWVAVIWYDGSHKFYADSVKGRFTISRDNSKNTLFLQMNSLRAEDTAVYYCTRDLDYWGQGTLVTVSSA VL: ETQLTQSPGTLSLSPGERVTLSCRASQSVSNNYLAWYQQKPGQAPRLLIYGASSRATGIPDRFSGSGSGTDFTLTISRLEPEDCAECYCQQYGSSLPLTFGGGTKVEIKR in the records?
7

Request: mAb 2.76: fully human IgG4 kappa anti-TIM-1 monoclonal antibody; heavy chain SEQ ID NO: 46, light chain SEQ ID NO: 48 (antibody, listed as Homo Sapiens, V domains shown) VH: NNNNEQSGGGVVQPGRSLRLSCAASGFTFSSYGMYWVRQAPGKGLEWVAVIWYDGSNKYYADSVKGRFTISRDNSKNTLYLQMNSLRAEDTAVYYCARDFYDSSRYHYGMDVWGQGTTVTVSSA VL: NNNNTQCPLSLPVTPGEPASISCRSSQSLLDSDDGNTYLDWYLQKPGQSPQLLIYTVSYRASGVPDRFSGSGSGTDFTLKISRVEAEDVGVYYCMQRIEFPITFGQGTRLEIKR
4

Source: patent US20170267750A1
